Molecular target: human PF4 (Homo sapiens, UniProt P02776)
Construct: PF4 is a 70 amino acid, lysine-rich 7.8 kDa platelet-specific protein; made in house; host or cells: Escherichia coli BL21DE3 pLysS (pT7-7) and/or Drosophila S2 cells
Sequence (P02776 32-101): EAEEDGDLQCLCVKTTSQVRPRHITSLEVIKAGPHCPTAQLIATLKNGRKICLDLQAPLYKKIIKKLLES
Assay: Inhibition of PF4 tetramer formation (BS3 cross-linking, SDS-PAGE)
Format: biochemical
Settings: 3 μM inhibitor (column A); read-out: % inhibition of PF4 tetramer formation at single concentration of inhibitor
Label rule, in plain words: inhibition at 3 µM of 40% and up is 1, under 40% is -1.

>>> label_class("O=C(c1ccc2c(c1)C(=O)C(C(=O)CC1CCCC1=O)C2=O)c1ccc2c(c1)C(=O)C(C(=O)CC1CCCC1=O)C2=O (centres unmarked)")
1
>>> label_class("COC(=O)CCC(=O)C1C(=O)c2ccc(C(=O)c3ccc4c(c3)C(=O)C(C(=O)CCC(=O)OC)C4=O)cc2C1=O (centres unmarked)")
-1
>>> label_class("COCCOCCN(CC(=O)C1C(=O)c2ccc(Oc3ccc4c(c3)C(=O)C(C(=O)CN(CCOCCOC)C(=O)OC(C)(C)C)C4=O)cc2C1=O)C(=O)OC(C)(C)C (centres unmarked)")
-1
>>> label_class("NCC(=O)C1C(=O)c2ccc(Oc3ccc4c(c3)C(=O)C(C(=O)CN)C4=O)cc2C1=O (centres unmarked)")
-1
>>> label_class("CC(C)(C)OC(=O)NCCCC(=O)C1C(=O)c2ccc(Oc3ccc4c(c3)C(=O)C(C(=O)CCCNC(=O)OC(C)(C)C)C4=O)cc2C1=O (centres unmarked)")
1
>>> label_class("CCOCC(=O)C1C(=O)c2ccc(Oc3ccc4c(c3)C(=O)C(C(=O)COCC)C4=O)cc2C1=O (centres unmarked)")
-1
>>> label_class("O=C(NC1CCC1)C1C(=O)c2ccc(Oc3ccc4c(c3)C(=O)C(C(=O)NC3CCC3)C4=O)cc2C1=O (centres unmarked)")
1
>>> label_class("CC(C)[C@@H](N)C(=O)C1C(=O)c2ccc(C(=O)c3ccc4c(c3)C(=O)C(C(=O)[C@H](N)C(C)C)C4=O)cc2C1=O (some centres unmarked)")
1
>>> label_class("CC(C)[C@@H](N)C(=O)C1C(=O)c2ccc(S(=O)(=O)c3ccc4c(c3)C(=O)C(C(=O)[C@H](N)C(C)C)C4=O)cc2C1=O (some centres unmarked)")
-1
>>> label_class("O=C(c1ccc2c(c1)C(=O)C(Br)C2=O)c1ccc2c(c1)C(=O)C(Br)C2=O (centres unmarked)")
1
>>> label_class("COC(=O)[C@H]1CCCCC1C(=O)C1C(=O)c2ccc(C(=O)c3ccc4c(c3)C(=O)C(C(=O)C3CCCC[C@@H]3C(=O)OC)C4=O)cc2C1=O (stereo in doubt)")
-1
>>> label_class("O=C1c2ccc(S(=O)(=O)c3ccc4c(c3)C(=O)C(C(=O)C3CCC3)C4=O)cc2C(=O)C1C(=O)C1CCC1 (centres unmarked)")
-1
>>> label_class("CC(C)(C)OC(=O)NCC(=O)C1C(=O)c2ccc(Oc3ccc4c(c3)C(=O)C(C(=O)CNC(=O)OC(C)(C)C)C4=O)cc2C1=O (centres unmarked)")
1
>>> label_class("CC(C)(C)OC(=O)N1CC[C@H]1C(=O)C1C(=O)c2ccc(Oc3ccc4c(c3)C(=O)C(C(=O)[C@@H]3CCN3C(=O)OC(C)(C)C)C4=O)cc2C1=O (some centres unmarked)")
-1

----------
Entries annotated with measured inhibition at 5 µM
Target: human PF4 (Homo sapiens, UniProt P02776)
Construct: PF4 is a 70 amino acid, lysine-rich 7.8 kDa platelet-specific protein; made in house; host or cells: Escherichia coli BL21DE3 pLysS (pT7-7) and/or Drosophila S2 cells
Test: Inhibition of PF4 tetramer formation (BS3 cross-linking, SDS-PAGE)
Format: biochemical
Details: 5 μM inhibitor; read-out: % inhibition of PF4 tetramer formation at single concentration of inhibitor
PROPERTY LABEL: inhibition at 5 µM (%)

>>> endpoint_result("COC(=O)C(C)(C)CC(=O)C1C(=O)c2ccc(C(=O)c3ccc4c(c3)C(=O)C(C(=O)CC(C)(C)C(=O)OC)C4=O)cc2C1=O (stereo not drawn)")
68
>>> endpoint_result("CC(C)(C)OC(=O)N1C[C@H](F)C[C@H]1C(=O)C1C(=O)c2ccc(C(=O)c3ccc4c(c3)C(=O)C(C(=O)[C@@H]3C[C@@H](F)CN3C(=O)OC(C)(C)C)C4=O)cc2C1=O (stereo partly drawn)")
68
>>> endpoint_result("CC(C)(C)OC(=O)N1C[C@@H]2[C@H](C1)[C@H]2C(=O)C1C(=O)c2ccc(-c3ccc4c(c3)C(=O)C(C(=O)[C@H]3[C@@H]5CN(C(=O)OC(C)(C)C)C[C@@H]53)C4=O)cc2C1=O (stereo partly drawn)")
82

----------
Target: human PF4 (Homo sapiens, UniProt P02776)
Construct: PF4 is a 70 amino acid, lysine-rich 7.8 kDa platelet-specific protein; made in house; host or cells: Escherichia coli BL21DE3 pLysS (pT7-7) and/or Drosophila S2 cells
Experiment: Inhibition of PF4 tetramer formation (BS3 cross-linking, SDS-PAGE)
Format: biochemical
Conditions: 10 μM inhibitor (column A); read-out: % inhibition of PF4 tetramer formation at single concentration of inhibitor
Entries annotated with measured inhibition at 10 µM
PROPERTY LABEL: inhibition at 10 µM (%)

>>> endpoint_result("CN1CCC[C@H]1C(=O)C1C(=O)c2ccc(S(=O)(=O)c3ccc4c(c3)C(=O)C(C(=O)[C@@H]3CCCN3C)C4=O)cc2C1=O (stereo partly drawn)")
36
>>> endpoint_result("COCCOCCNC(=O)C1C(=O)c2ccc(C(=O)c3ccc4c(c3)C(=O)C(C(=O)NCCOCCOC)C4=O)cc2C1=O (stereo not drawn)")
86
>>> endpoint_result("CC(C)(C)OC(=O)N1CC2(CC(C(=O)C3C(=O)c4ccc(-c5ccc6c(c5)C(=O)C(C(=O)C5CC7(C5)CN(C(=O)OC(C)(C)C)C7)C6=O)cc4C3=O)C2)C1 (stereo not drawn)")
95

----------
Entries annotated with measured IC50
Target: human PF4 (Homo sapiens, UniProt P02776)
Construct: PF4 is a 70 amino acid, lysine-rich 7.8 kDa platelet-specific protein; made in house; host or cells: Escherichia coli BL21DE3 pLysS (pT7-7) and/or Drosophila S2 cells
Test: Inhibition of PF4 tetramer formation (BS3 cross-linking, SDS-PAGE)
Assay type: biochemical
Conditions: read-out: IC50 of PF4 tetramer formation inhibition
PROPERTY LABEL: IC50 (µM)

>>> endpoint_result("O=C(c1ccc2c(c1)C(=O)C(C(=O)Nc1ccc3c(c1)OCCO3)C2=O)c1ccc2c(c1)C(=O)C(C(=O)Nc1ccc3c(c1)OCCO3)C2=O (stereo not drawn)")
3.02
>>> endpoint_result("O=C(c1ccc2c(c1)C(=O)C(C(=O)C1CCCCC1)C2=O)c1ccc2c(c1)C(=O)C(C(=O)C1CCCCC1)C2=O (stereo not drawn)")
3

----------
Target: human PF4 (Homo sapiens)
Construct: PF4 is a 70 amino acid, lysine-rich 7.8 kDa platelet-specific protein; made in house; host or cells: Escherichia coli BL21DE3 pLysS (pT7-7) and/or Drosophila S2 cells
Sequence (P02776 32-101): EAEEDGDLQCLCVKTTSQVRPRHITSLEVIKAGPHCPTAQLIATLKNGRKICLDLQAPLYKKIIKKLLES
Experiment: Inhibition of PF4 tetramer formation (BS3 cross-linking, SDS-PAGE)
Format: biochemical
Details: read-out: IC50 of PF4 tetramer formation inhibition
Entries annotated with measured IC50
PROPERTY LABEL: IC50

>>> endpoint_result("C[C@H](NC(=O)OC(C)(C)C)C(=O)C1C(=O)c2ccc(S(=O)(=O)c3ccc4c(c3)C(=O)C(C(=O)[C@H](C)NC(=O)OC(C)(C)C)C4=O)cc2C1=O (stereo partly shown) [Example 180]")
"~6 µM"
>>> endpoint_result("CC(C)CCCC(=O)C1C(=O)c2ccc(C(c3ccc4c(c3)C(=O)C(C(=O)CCCC(C)C)C4=O)(C(F)(F)F)C(F)(F)F)cc2C1=O (stereo not shown) [Example 194]")
"~1.5 µM"
>>> endpoint_result("O=C(Nc1ccccc1)C1C(=O)c2ccc(S(=O)(=O)c3ccc4c(c3)C(=O)C(C(=O)Nc3ccccc3)C4=O)cc2C1=O (stereo not shown) [Example 37]")
"~1 µM"
>>> endpoint_result("CC(C)(C)OC(=O)N1CSC[C@H]1C(=O)C1C(=O)c2ccc(-c3ccc4c(c3)C(=O)C(C(=O)[C@@H]3CSCN3C(=O)OC(C)(C)C)C4=O)cc2C1=O (stereo partly shown) [Example 210]")
"~5 µM"

----------
Entries annotated with measured inhibition at 3 µM
Biological target: human PF4 (Homo sapiens, UniProt P02776)
Construct: PF4 is a 70 amino acid, lysine-rich 7.8 kDa platelet-specific protein; made in house; host or cells: Escherichia coli BL21DE3 pLysS (pT7-7) and/or Drosophila S2 cells
Sequence (P02776 32-101): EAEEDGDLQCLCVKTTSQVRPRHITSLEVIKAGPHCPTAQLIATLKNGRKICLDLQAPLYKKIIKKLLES
Test: Inhibition of PF4 tetramer formation (BS3 cross-linking, SDS-PAGE)
Format: biochemical
Details: 3 μM inhibitor (column A); read-out: % inhibition of PF4 tetramer formation at single concentration of inhibitor
PROPERTY LABEL: inhibition at 3 µM (%)

>>> endpoint_result("CO[C@@H](C)C(=O)C1C(=O)c2ccc(Oc3ccc4c(c3)C(=O)C(C(=O)[C@H](C)OC)C4=O)cc2C1=O (stereo partly drawn)")
56
>>> endpoint_result("CN(CC(=O)C1C(=O)c2ccc(C#Cc3ccc4c(c3)C(=O)C(C(=O)CN(C)C(=O)OC(C)(C)C)C4=O)cc2C1=O)C(=O)OC(C)(C)C (stereo not drawn)")
26
>>> endpoint_result("O=C(c1ccc2c(c1)C(=O)C(C(=O)Cc1ccncc1)C2=O)c1ccc2c(c1)C(=O)C(C(=O)Cc1ccncc1)C2=O (stereo not drawn)")
100
